- Test system: MOLT-4 leukemia
- test_name: NCI-60 one-dose screen, 48 h
- details: 10 µM
About 83,000 compounds went through this panel and 20% of them were active in at least one assay; those are over-represented in the sample as a whole. The source made the active and inactive calls. Rule for the calls: active = growth percent below 10; inactive = the rest.
Select the correct class. Options are active, inactive and nothing else.

Hello, I am checking results. What call was entered for CCC(C)[C@H]1C(=O)O[C@H](C(C)C)C(=O)N(C)[C@@H](C(C)C)C(=O)O[C@H](C(C)C)C(=O)N(C)[C@@H](C(C)C)C(=O)O[C@H](C(C)C)C(=O)N1C (some centres not stated) ?
active

Hello, I am checking results. What call was entered for CC1=C[C@H]2O[C@@H]3C[C@H]4OC(=O)/C=C\C=C\[C@H]([C@@H](C)O)OCC[C@@H](C)[C@H](O)C(=O)OC[C@@]2(CC1)[C@]4(C)[C@]31CO1 ?
active

Hello, I am checking results. What call was entered for CC1=C2C(=C[C@@](C)(COS(C)(=O)=O)[C@@H]2O)C(=O)[C@](C)(O)C12CC2 ?
inactive

Hello, I am checking results. What call was entered for N#Cc1c(-n2c(Br)c(Br)c3cc(Br)ccc32)[nH]c2c(Br)cc(Br)cc12 ?
active

Hello, I am checking results. What call was entered for C/C=C\C(=O)O[C@@H]1CC2O[C@@H]3C=C(C)C(=O)C[C@]3(C)[C@]1(C)[C@]21CO1 ?
active

Hello, I am checking results. What call was entered for CC(=O)O[C@@H]1[C@@H]2O[C@H]2[C@@](C)(O)C(=O)[C@@H](C)C/C=C/[C@H]2[C@@H]3O[C@]3(C)[C@@H](C)C3[C@H](Cc4ccccc4)NC(=O)[C@@]312 (some centres not stated) ?
inactive

Hello, I am checking results. What call was entered for CC1=C2C(=O)[C@](C)(CO)C=C2C(=O)[C@](C)(O)C12CC2 ?
inactive

Cited source: PubChem BioAssay (NCI)
